Taken from patent US11566007B2.

# ASSAY TARGET: K-Ras G12C (Homo sapiens (Human), UniProt P01116+P62937, G12C)
# Sequence (P01116-2 other isoform, or with tags, fused parts or gaps G12C): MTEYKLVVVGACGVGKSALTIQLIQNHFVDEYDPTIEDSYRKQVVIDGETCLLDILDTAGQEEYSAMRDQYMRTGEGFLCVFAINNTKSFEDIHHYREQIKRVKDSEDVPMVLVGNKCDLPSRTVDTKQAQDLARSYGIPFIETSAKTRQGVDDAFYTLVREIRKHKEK
# Sequence (P62937 whole entry): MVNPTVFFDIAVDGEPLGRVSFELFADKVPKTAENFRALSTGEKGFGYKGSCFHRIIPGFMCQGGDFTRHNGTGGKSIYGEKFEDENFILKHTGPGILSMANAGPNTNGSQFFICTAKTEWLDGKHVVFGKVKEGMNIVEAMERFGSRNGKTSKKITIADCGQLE
# ASSAY NOTES: Ras-Raf (BRAF RBD) disruption / FRET / MOA assay, KRAS G12C
# Assay type: biochemical
# ASSAY CONTEXT: KRAS G12C; Ras-Raf disruption/FRET/MOA assay; read-out: IC50* KRAS G12C FRET data
pIC50: −log10 of the molar value.
TEST READOUT: pIC50

INSERT INTO assay_data (molecule, value_observed) VALUES
  ('CO[C@@H](C)c1ncccc1-c1c2c3cc(ccc3n1CC(F)(F)F)-c1nc(co1)C[C@H](NC(=O)[C@@H](COC1CN(C(=O)C#CC(C)(C)N(C)C)C1)C(C)C)C(=O)N1CCC[C@H](N1)C(=O)OCC(C)(C)C2 (atropisomer, axis not shown)', '7.00 to 8.00');

Turning to the following molecule.
Given the entry CCn1c(-c2cccnc2[C@H](C)OC)c2c3cc(ccc31)-c1cc(O)cc(c1)C[C@H](NC(=O)[C@H](C(C)C)N(C)C(=O)c1ncc(NC(=O)/C=C/CN(C)C)s1)C(=O)N1CCC[C@H](N1)C(=O)OCC(C)(C)C2 (atropisomer, axis not shown) , report its measured pIC50.
7.00 to 8.00
